- System: BJ-5ta
- Assay remarks: MTT assay, BJ-5ta normal fibroblasts
- Assay type: cell-based, human
- Conditions: 72 h of incubation, normal cell line, read-out: IC50 values ± SD, BJ-5ta
Metric: pIC50
One number for each entry, as −log10 of the molar value.

**Q:** Reported pIC50 for N.N.[Cl][Pt][Cl] [Cisplatin, cisplatin, reference compound] : what is it?
**A:** 4.44

====

- Tested on: HeLa
- Assay remarks: MTT assay, HeLa cells
- Assay type: cell-based, human
- Conditions: Homo sapiens, HeLa, 72 h of incubation, read-out: IC50 values ± SD, HeLa
Rule for this label: satisfied means IC50 is less than 40 µM; not satisfied means IC50 is at least 40 µM.

> print(dat)
                                   compound  classification
1  N#CC1=CC2(c3ccccc3Nc3ccccc32)N(NC(=S)Nc2ccc([N+](=O)[O-])cc2)C1=O   not satisfied

**Q:** Dear colleague, could you confirm whether IC50 of `CCOC(=O)/C=C1\S/C(=N\N2C(=O)C(C#N)=CC23c2ccccc2Nc2ccccc23)N(c2ccc(F)cc2)C1=O` falls below 40 µM? Thanks.
**A:** satisfied

**Q:** Dear colleague, could you confirm whether IC50 of COc1ccc(N2C(=O)C(C)S/C2=N\N2C(=O)C(C#N)=CC23c2ccccc2Nc2ccccc23)cc1 (centres unmarked) falls below 40 µM? Thanks.
**A:** not satisfied

**Q:** Dear colleague, could you confirm whether IC50 of `CCOC(=O)/C=C1\S/C(=N\N2C(=O)C(C#N)=CC23c2ccccc2Nc2ccccc23)N(c2ccccc2)C1=O` falls below 40 µM? Thanks.
**A:** satisfied

**Q:** Dear colleague, could you confirm whether IC50 of `N#CC1=CC2(c3ccccc3Nc3ccccc32)N(/N=C2\SCC(=O)N2c2ccc(F)cc2)C1=O` falls below 40 µM? Thanks.
**A:** not satisfied

**Q:** Dear colleague, could you confirm whether IC50 of `COc1ccc(N2C(=O)CS/C2=N\N2C(=O)C(C#N)=CC23c2ccccc2Nc2ccccc23)cc1` falls below 40 µM? Thanks.
**A:** not satisfied

**Q:** Dear colleague, could you confirm whether IC50 of `N#CC1=CC2(c3ccccc3Nc3ccccc32)N(NC(=S)Nc2ccc(F)cc2)C1=O` falls below 40 µM? Thanks.
**A:** not satisfied

====

- Tested on: MDA-MB-231
- Assay remarks: MTT assay, MDA-MB-231 cells
- Assay type: cell-based, human
- Conditions: 72 h of incubation, read-out: IC50 values ± SD, MDA-MB-231
Metric: IC50 (µM)
Numbers only, in µM.

**Q:** Reported IC50 for N.N.[Cl][Pt][Cl] [Cisplatin, cisplatin, reference compound] : what is it?
**A:** 7.1

====

- Tested on: HCT-116
- Assay remarks: MTT assay, HCT-116 cells
- Format: cell-based, human
- Conditions: MTT, 72 h of incubation; read-out: IC50 values ± SD, HCT-116
Metric: IC50 (µM)
Give bare numbers, in µM.

**Q:** Reported IC50 for N.N.[Cl][Pt][Cl] [Cisplatin, cisplatin, reference compound] : what is it?
**A:** 12.4

====

- System: primary brain endothelial cells
- Assay remarks: Endothelial cell viability assay (ATP, CellTiter-Glo)
- Format: cell-based, rats
- Conditions: primary rat brain endothelial cells
Metric: pIC50
Answers are plain numbers, as −log10 of the molar value.

Would you please look over these solved cases?
> print(dat)
                                smiles.text                    tested.system  meas.value
1  COc1cccc(NC(=S)NN2C(=O)C(C#N)=CC23c2ccccc2Nc2ccccc23)c1  primary brain endothelial cells        4.41
2  N#CC1=CC2(c3ccccc3Nc3ccccc32)N(NC(=S)Nc2ccc([N+](=O)[O-])cc2)C1=O  primary brain endothelial cells        4.35
3  CCOC(=O)/C=C1\S/C(=N\N2C(=O)C(C#N)=CC23c2ccccc2Nc2ccccc23)N(c2cccc(OC)c2)C1=O  primary brain endothelial cells        4.70

Let us examine a further case.
**Q:** Reported pIC50 for `CCOC(=O)/C=C1\S/C(=N\N2C(=O)C(C#N)=CC23c2ccccc2Nc2ccccc23)N(c2ccccc2)C1=O` : what is it?
**A:** 5.30

====

Please go through the items and note down their IC50.
- Tested on: HeLa
- Assay remarks: MTT assay, HeLa cells
- Type: cell-based, human
- Conditions: Homo sapiens, HeLa, 72 h of incubation, read-out: IC50 values ± SD, HeLa
Numbers only, in µM.

Would you please look over these solved cases?
> print(dat)
                                smiles.text  metric  meas.value
1  CCOC(=O)/C=C1\S/C(=N\N2C(=O)C(C#N)=CC23c2ccccc2Nc2ccccc23)N(c2ccc([N+](=O)[O-])cc2)C1=O    IC50         6.5
2  COc1cccc(N2C(=O)CS/C2=N\N2C(=O)C(C#N)=CC23c2ccccc2Nc2ccccc23)c1    IC50          54
3  CCOC(=O)/C=C1\S/C(=N\N2C(=O)C(C#N)=CC23c2ccccc2Nc2ccccc23)N(c2ccc(OC)cc2)C1=O    IC50        16.9

Let us examine a further case.
**Q:** Reported IC50 for `N#CC1=CC2(c3ccccc3Nc3ccccc32)N(/N=C2\SCC(=O)N2c2ccccc2)C1=O` : what is it?
**A:** 51.2

====

Metric: melting point

Would you please look over these solved cases?
> print(dat)
                                   compound         metric            meas.value
1  CCCC1S/C(=N\N2C(=O)C(C#N)=CC23c2ccccc2Nc2ccccc23)N(c2ccc(F)cc2)C1=O (stereo not drawn) [10d]  melting point  230 to 232 °C (dec.)
2  COc1ccc(N2C(=O)CS/C2=N\N2C(=O)C(C#N)=CC23c2ccccc2Nc2ccccc23)cc1  melting point  207 to 210 °C (dec.)
3  N#CC1=CC2(c3ccccc3Nc3ccccc32)N(NC(=S)Nc2ccc([N+](=O)[O-])cc2)C1=O  melting point  175 to 179 °C (dec.)
4  CC1S/C(=N\N2C(=O)C(C#N)=CC23c2ccccc2Nc2ccccc23)N(c2ccc(F)cc2)C1=O (stereo not drawn)  melting point  235 to 239 °C (dec.)
5  CC1S/C(=N\N2C(=O)C(C#N)=CC23c2ccccc2Nc2ccccc23)N(c2ccc([N+](=O)[O-])cc2)C1=O (stereo not drawn)  melting point  170 to 173 °C (dec.)
6  COc1cccc(N2C(=O)C(C)S/C2=N\N2C(=O)C(C#N)=CC23c2ccccc2Nc2ccccc23)c1 (stereo not drawn)  melting point  237 to 240 °C (dec.)

Quick one: give me melting point for each item below, same order please.
1. CCOC(=O)/C=C1\S/C(=N\N2C(=O)C(C#N)=CC23c2ccccc2Nc2ccccc23)N(c2ccccc2)C1=O
2. CCOC(=O)/C=C1\S/C(=N\N2C(=O)C(C#N)=CC23c2ccccc2Nc2ccccc23)N(c2cccc(OC)c2)C1=O
3. COc1cccc(NC(=S)NN2C(=O)C(C#N)=CC23c2ccccc2Nc2ccccc23)c1
4. CCCC1S/C(=N\N2C(=O)C(C#N)=CC23c2ccccc2Nc2ccccc23)N(c2ccc(OC)cc2)C1=O (stereo not drawn) [10b]
5. CCOC(=O)/C=C1\S/C(=N\N2C(=O)C(C#N)=CC23c2ccccc2Nc2ccccc23)N(c2ccc([N+](=O)[O-])cc2)C1=O
6. CC1S/C(=N\N2C(=O)C(C#N)=CC23c2ccccc2Nc2ccccc23)N(c2ccccc2)C1=O (stereo not drawn)
7. N#CC1=CC2(c3ccccc3Nc3ccccc32)N(NC(=S)Nc2ccc(F)cc2)C1=O

**A:**
256 to 259 °C (dec.)
239 to 243 °C (dec.)
184 to 186 °C (dec.)
247 to 250 °C (dec.)
183 to 186 °C (dec.)
245 to 249 °C (dec.)
197 to 199 °C (dec.)

Quick one: give me melting point for each item below, same order please.
1. N#CC1=CC2(c3ccccc3Nc3ccccc32)N(/N=C2\SCC(=O)N2c2ccc(F)cc2)C1=O
2. COc1ccc(N2C(=O)C(C)S/C2=N\N2C(=O)C(C#N)=CC23c2ccccc2Nc2ccccc23)cc1 (stereo not drawn)

**A:**
1. 249 to 252 °C (dec.)
2. 219 to 224 °C (dec.)

====

- Test system: Jurkat
- Assay remarks: MTT assay, Jurkat cells
- Assay type: cell-based, human
- Conditions: Homo sapiens, Jurkat; MTT, 72 h of incubation; read-out: IC50 values ± SD, Jurkat
Metric: IC50 (µM)
Answers are plain numbers, in µM.

Quick one: give me IC50 for each item below, same order please.
1. CC1S/C(=N\N2C(=O)C(C#N)=CC23c2ccccc2Nc2ccccc23)N(c2ccc([N+](=O)[O-])cc2)C1=O (stereo not drawn)
2. COc1cccc(NC(=S)NN2C(=O)C(C#N)=CC23c2ccccc2Nc2ccccc23)c1
3. COc1ccc(NC(=S)NN2C(=O)C(C#N)=CC23c2ccccc2Nc2ccccc23)cc1
4. CCOC(=O)/C=C1\S/C(=N\N2C(=O)C(C#N)=CC23c2ccccc2Nc2ccccc23)N(c2cccc(OC)c2)C1=O
5. CCOC(=O)/C=C1\S/C(=N\N2C(=O)C(C#N)=CC23c2ccccc2Nc2ccccc23)N(c2ccccc2)C1=O
6. N#CC1=CC2(c3ccccc3Nc3ccccc32)N(NC(=S)Nc2ccccc2)C1=O

**A:**
34.4
6.47
39.9
5.67
5.67
11.6

**Q:** Reported IC50 for COc1cccc(N2C(=O)C(C)S/C2=N\N2C(=O)C(C#N)=CC23c2ccccc2Nc2ccccc23)c1 (stereo not drawn) : what is it?
**A:** 25.8

Data provenance is paper PMC10537105.
